Test system: Botrytis cinerea
Test protocol: Test F: tomato Botrytis, preventive spray on tomato seedlings, disease rating
Type: in vivo
Test parameters: 200 ppm
Recorded endpoint: Percentage Disease Control, Test F (%)

1) CNC(=O)C(=NOC)c1cc(-c2ccn(-c3cccc(C(F)(F)F)c3)n2)ccc1C ... 0
2) COC(=O)NCc1cc(-n2ccc(-c3cccc(Br)c3)n2)ccc1Cl ... 0
3) C=C[Si](C)(C)CON=C(C)c1ccc(Cl)c(CNC(=O)OC)c1 ... 37
4) COC(=O)NCc1cc(-c2ccn(CCCc3ccccc3)n2)ccc1Cl ... 0
5) COC(=O)NCc1cc(-c2ccn(-c3ccc(C#N)cc3)n2)ccc1Cl ... 0
6) CON=C(C(=O)OC)c1cc(-c2ccn(-c3cccc(C(F)(F)F)c3)n2)ccc1C ... 67
7) COC(=O)NCc1cc(-c2cc(C(F)(F)F)[nH]n2)ccc1Cl ... 0
8) COC(=O)NCc1cc(C(C)=NOC[Si](C)(C)Cc2ccccc2)ccc1Cl ... 0
9) COC(=O)NCc1cc(-n2ccc(-c3cccc(Cl)c3)n2)ccc1Cl ... 63
10) COC(=O)NCc1cc(-n2cnc(-c3cccc(C(F)(F)F)c3)n2)ccc1Cl ... 0
11) COC(=O)NCc1cc(-c2ccn(Cc3cnc(Cl)s3)n2)ccc1Cl ... 37
12) COC(=O)NCc1cc(-c2ccn(CCCF)n2)ccc1Cl ... 0
13) COC(=O)NCc1cc(-c2ccn(-c3nc(C(C)(C)C)ns3)n2)ccc1Cl ... 0
14) COC(=O)NCc1cc(-c2ccn(-c3ccc(C(=O)OC)cc3)n2)ccc1Cl ... 0
15) COC(=O)NCc1cc(-c2nn(CCC[Si](C)(C)C)cc2Cl)ccc1Cl ... 0
16) COC(=O)NCc1cc(-c2ccn(-c3ccc(OC)cc3)n2)ccc1Cl ... 0
17) COC(=O)NCc1cc(-c2ccn(Cc3cccc(C)n3)n2)ccc1Cl ... 0
18) C=C(CON=C(C)c1ccc(Cl)c(CNC(=O)OC)c1)C[Si](C)(C)C ... 0
19) COC(=O)NCc1cc(-n2ccc(-c3cccc(C(F)(F)F)c3)n2)ccc1Cl ... 51

Sourced from patent US9198433B2
